Would you kindly list IC50 for each of these compounds?
- System: MDA-MB-435
- assay_procedure: In vitro growth inhibitory activity against MDA-MB-435 human breast cancer cell line
- Type: functional, cell-based
Form entry: value (µM) — number only.

IC50 reported for this compound `C=C1C[C@H](C)C[C@@H]2CC=C[C@@H](C/C=C\C(=O)O[C@H]([C@@H](O)/C=C/[C@@H]3CC(C)=CCO3)C/C=C/[C@H](O)C1)O2` : 0.79

Data point: `C=C1C[C@H](C)C[C@@H]2CC=C[C@@H](C/C=C/C(=O)O[C@H]([C@@H](O)/C=C/[C@@H]3CC(C)=CCO3)C/C=C/[C@H](O)C1)O2` ; IC50 = 4.29

Briefly, IC50 measured for `C=C1C[C@H](C)C[C@@H]2CC=C[C@@H](C/C=C\C(=O)O[C@H]([C@@H](O)/C=C/[C@@H]3CC(C)=CCO3)C[C@@H]3O[C@H]3[C@H](OC(=O)N(C)C)C1)O2` : 0.601

IC50 for C=C1C[C@H](C)C[C@@H]2CC=C[C@@H](C/C=C\C(=O)O[C@H]([C@@H](O)/C=C/[C@@H]3CC(C)=CCO3)C[C@@H]3O[C@H]3[C@@H](O)C1)O2 [FIJIANOLIDE B] is 0.0023

For this compound ( `C=C1C[C@H](C)C[C@@H]2CC=C[C@@H](C/C=C\C(=O)O[C@H]([C@@H](O)/C=C/[C@@H]3CC(C)=CCO3)C[C@@H]3O[C@H]3[C@H](OC(=O)c3ccc([N+](=O)[O-])cc3)C1)O2` ), measured IC50 is 0.037

Per the record, `C=C1C[C@H](C)C[C@@H]2CC=C[C@@H](C/C=C\C(=O)O[C@H]([C@@H](O)/C=C/[C@@H]3CC(C)=CCO3)C/C=C/[C@@H](O)C1)O2` has IC50 of 0.289

For `C=C1C[C@H](C)C[C@@H]2CC=C[C@@H](C/C=C/C(=O)O[C@H]([C@@H](O)/C=C/[C@@H]3CC(C)=CCO3)C/C=C/[C@@H](O)C1)O2` the compound record lists IC50 as 2.76

Lookup result for `C=C1C[C@H](C)C[C@@H]2CC=C[C@@H](C/C=C\C(=O)O[C@H]([C@@H](O)/C=C/[C@@H]3CC(C)=CCO3)C[C@H]3O[C@@H]3[C@H](O)C1)O2` ; measured IC50: 0.176

The value of IC50 measured for the compound `C=C1C[C@H](C)C[C@@H]2CC=C[C@@H](C/C=C\C(=O)O[C@H]([C@H](/C=C/[C@@H]3CC(C)=CCO3)OC(C)=O)C[C@@H]3O[C@H]3[C@@H](O)C1)O2` turned out to be 0.091

Entry `C=C1C[C@H](C)C[C@@H]2CC=C[C@@H](C/C=C\C(=O)O[C@H]([C@H](/C=C/[C@@H]3CC(C)=CCO3)OC(C)=O)C[C@@H]3O[C@H]3[C@@H](OC(C)=O)C1)O2` , IC50 reported as 0.289

Form: compound = `C=C1C[C@H](C)C[C@@H]2CC=C[C@@H](C/C=C\C(=O)O[C@H]([C@H](/C=C/[C@@H]3CC(C)=CCO3)OC)C[C@@H]3O[C@H]3[C@@H](O)C1)O2` ; IC50 = 0.242

Lab note: `C=C1C[C@H](C)C[C@@H]2CC=C[C@@H](C/C=C\C(=O)O[C@H]([C@@H](O)/C=C/[C@@H]3CC(C)=CCO3)C[C@@H]3O[C@H]3[C@H](OC(=O)OC)C1)O2` gave IC50 of 0.422

Briefly, IC50 measured for `C=C1C[C@H](C)C[C@@H]2CC=C[C@@H](C/C=C\C(=O)O[C@H]([C@@H](O)/C=C/[C@@H]3CC(C)=CCO3)C[C@@H]3O[C@H]3[C@@H](OC(C)=O)C1)O2` : 0.023
